Origin of values: patent US20190153059A1

// reported CLR/RAMP3 IC50 for each item listed
- assay target: CLR/RAMP3 receptor (UniProt Q16602 23-461; O60896 24-148, limits assumed)
- Sequence (Q16602 23-461 limits assumed, chain 1 of 2): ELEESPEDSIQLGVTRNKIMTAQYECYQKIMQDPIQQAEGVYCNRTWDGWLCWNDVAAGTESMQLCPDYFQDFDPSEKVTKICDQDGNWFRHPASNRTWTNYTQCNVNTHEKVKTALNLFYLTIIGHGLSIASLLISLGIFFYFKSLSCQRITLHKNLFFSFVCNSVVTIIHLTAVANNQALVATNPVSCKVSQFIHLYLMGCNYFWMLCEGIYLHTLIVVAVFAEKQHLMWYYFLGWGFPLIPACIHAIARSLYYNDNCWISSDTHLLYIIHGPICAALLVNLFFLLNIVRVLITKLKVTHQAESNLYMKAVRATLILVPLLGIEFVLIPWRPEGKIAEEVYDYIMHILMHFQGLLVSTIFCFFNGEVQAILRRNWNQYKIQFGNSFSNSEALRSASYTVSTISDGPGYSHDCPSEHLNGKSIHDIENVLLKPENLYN
- Sequence (O60896 24-148 limits assumed, chain 2 of 2): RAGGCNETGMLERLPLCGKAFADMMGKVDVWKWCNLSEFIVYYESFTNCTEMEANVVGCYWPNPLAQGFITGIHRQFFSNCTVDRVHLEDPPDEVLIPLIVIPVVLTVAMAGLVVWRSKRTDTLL
- test name: cell-based or functional assay
* marks the point of attachment. Palmitoyl = CCCCCCCCCCCCCCCC(=O)*; miniPEG = mini-PEG spacer unit
# unit: nM | format: bare number

According to the records, this binder miniPEG-K(Palmitoyl)VQKLAHQIYQFTDKDKDNSAPVDPSSPHSY-NH2 [SEQ ID NO: 78] displays CLR/RAMP3 IC50 of 0.8

According to the records, this binder Palmitoyl-KVQKLAHQIYQFTDKDVAPRSKISPQGY-NH2 [SEQ ID NO: 119] displays CLR/RAMP3 IC50 of 1.5

According to the records, this binder MiniPEG-KVQKLAHQIYSAPVDPSSPHSY-NH2 (also: K(Pal), Lys not given here) [SEQ ID NO: 114] displays CLR/RAMP3 IC50 of 8.4

According to the records, this binder MiniPEG-KVQKLAHQIYQFTDKDSAPVDPSSPHSY-NH2 (also: K(Pal), Lys not given here) [SEQ ID NO: 112] displays CLR/RAMP3 IC50 of 2.3

According to the records, this binder Palmitoyl-KVQKLAHQIYSAPVDPSSPHSY-NH2 [SEQ ID NO: 122] displays CLR/RAMP3 IC50 of 4.1

According to the records, this binder Ace-TVQKLAHRLWQLMGPDKDNVAPRSKISPQGY-NH2 [SEQ ID NO: 116] displays CLR/RAMP3 IC50 of 53

***
According to the records, this binder Ace-VTHRLAGLLSRFTDKDKDNVAPRSKISPQGY-NH2 [SEQ ID NO: 115] displays CLR/RAMP3 IC50 of 115

According to the records, this binder Palmitoyl-KVQNLSHRLWQLMGPAGSAPVDPSSPHSY-NH2 [SEQ ID NO: 120] displays CLR/RAMP3 IC50 of 9.2

According to the records, this binder Palmitoyl-KVQKLAHQIYQFTDKDSAPVDPSSPHSY-NH2 [SEQ ID NO: 121] displays CLR/RAMP3 IC50 of 1.8
